system: OVCAR-4; experiment: NCI tumour cell line growth inhibition, 48 h
Active and inactive are the calls of the source. Cut-off read from the data, not from the text of the source: active = GI50 up to about 1.1 µM and inactive = higher.
Result category, one only: label 1 for active, label 0 for inactive

## Task // param item: COC1C(N)C(OC2C(Oc3cccc4c(O)c5c(=O)oc6ccc(C)c7c(=O)oc(c34)c5c67)OC(C)C(O)C2(C)O)OC(C)C1O (stereo not given) ; yields the recorded call
## Result label 1

## Task What do you get for `O=c1[nH]ccc(CNC23CC4CC(CC(C4)C2)C3)c1O` ?
## Result label 0

## Task What do you get for `CCOC(=O)/C=C/n1c2ccccc2c(=O)c2ccccc21` ?
## Result label 0

## Task What do you get for `N=C1c2ccccc2C(=O)c2c(NCCNCCO)ccc(O)c21` ?
## Result label 0

## Task What do you get for `COc1ccc(C2=NNC(=O)c3ccccc3N2c2nc(-c3cccs3)nc3ccc(Br)cc23)cc1` ?
## Result label 0

---

test system: OVCAR-3; assay: NCI tumour cell line growth inhibition, 48 h
The source made the active and inactive calls. Rule as the data show it: active = GI50 up to about 1.1 µM and inactive = higher.
Result category, one only: T = active, F = inactive

## Task // param item: `CNC(=O)/C(C#N)=C(\N)N1CCCC1` ; yields the recorded call
## Result F

## Task What do you get for `Cc1ccc(S(=O)(=O)Oc2nc3nc4ccccc4nc3nc2OS(=O)(=O)c2ccc(C)cc2)cc1` ?
## Result F

## Task What do you get for COc1ccc(-c2cc(-c3ccccc3)n(C3OC(COC(C)=O)C(OC(C)=O)C(OC(C)=O)C3OC(C)=O)c(=S)c2C#N)cc1 (centres undefined) ?
## Result F

## Task What do you get for `COc1ccc(-c2c(C#N)c(N)nc(Sc3ccccc3N)c2C#N)cc1` ?
## Result F

## Task What do you get for `CN(C)c1ccc2nc3c(C(=O)O)cc(O)c(O)c3[o+]c2c1` ?
## Result F

## Task What do you get for `CON(C)C(C#N)=C(C#N)C#N` ?
## Result F

## Task What do you get for CC(C)C1OC(/C=C/c2ccccc2)OCC1(C)C (centres undefined) ?
## Result F

## Task What do you get for `C[C@@H]1O[C@@H](O[C@H]2CC[C@]3(C=O)[C@H]4CC[C@]5(C)[C@@H](C6=CC(=O)OC6)CC[C@]5(O)[C@@H]4CC[C@]3(O)C2)[C@H](O)[C@H](O)[C@H]1O` ?
## Result T

## Task What do you get for CC1=C(C#N)C(=C(C#N)C#N)OC1(C)Cc1ccccc1 (centres undefined) ?
## Result F

## Task What do you get for `CCOC(=O)NN(C(=O)OCC)c1ccc(/N=N/c2ccc(OC)cc2)n1C` ?
## Result F

## Task What do you get for `CCCCCC[C@H]([C@H](C)O)n1cnc2c(N)ncnc21` ?
## Result F

## Task What do you get for `CCn1c(-c2ccccc2)nc2c1C(=O)c1ccccc1C2=O` ?
## Result F

## Task What do you get for `N#Cc1ccc(Oc2nc3ccccc3nc2C(=O)O)cc1` ?
## Result F

## Task What do you get for O=C(OC1CC(n2cc(F)c(=O)[nH]c2=O)OC1CSC(=O)c1ccccc1)c1ccccc1 (centres undefined) ?
## Result F

## Task What do you get for `CC(=O)Oc1cc(S(=O)(=O)Nc2n[nH]c(Nc3ccc(C)cc3)n2)c(S)cc1Cl` ?
## Result F

## Task What do you get for `O=C(c1ccccc1)c1ccc(N2C(=O)/C(=C/c3cccc(Oc4ccccc4)c3)N=C2c2ccccc2)c(N2C(=O)/C(=C/c3cccc(Oc4ccccc4)c3)N=C2c2ccccc2)c1` ?
## Result F

## Task What do you get for `COc1ccc(-c2oc3c(OC)c(OC)c(OC)c(O)c3c(=O)c2OC)cc1OC` ?
## Result F

## Task What do you get for COC(=O)c1ccccc1C1CN=NC12Cc1c(C)ccc(C)c1C2=O (centres undefined) ?
## Result F

## Task What do you get for `Clc1ccc(-c2ccc(-c3nn4c(CNc5ccccc5)nnc4s3)o2)c(Cl)c1` ?
## Result F
